- Test system: SF-295 CNS
- assay_comment: NCI-60 one-dose screen, 48 h
- condition_details: 10 µM unless noted
The panel holds about 83,000 compounds, 20% with a hit somewhere; the sample as a whole holds those more often. Calls of active or inactive are those of the source. The calls were made as follows: active = growth percent below 10; inactive = the rest.
Return exactly one item of active, inactive

Could you kindly confirm the outcome this assay logged for Nc1ccc(-c2cc3c(Nc4ccc(Oc5cccc(C(F)(F)F)c5)c(Cl)c4)ncnc3s2)cc1 ?
inactive

Recorded test call requested for COc1cc(C(=O)/C=C/c2cccnc2Nc2ccc(Cl)cc2)cc(OC)c1OC
active

Per the assay record, what outcome was assigned to CN(Cc1cc(Cl)cc(Cl)c1O)Cc1cc(Cl)cc(Cl)c1O ?
inactive

Could you please tell me the result logged for O=C1c2ccccc2C(=O)c2c(N=Nc3[nH]c(=S)[nH]c3O)cccc21 in this assay?
active

Recorded call for COc1ccc(-n2nc(C)c3c(Nc4ccc(NC(=O)Nc5ccc(Cl)c(C(F)(F)F)c5)cc4)ncnc32)cc1 ?
active

Recorded call for CC(C)C[C@@H](NC(=O)[C@@H](Cc1ccccc1)NC(=O)c1cnccn1)B1Oc2ccc(C[C@H](NC(=O)[C@H](Cc3ccc4c(c3)OB([C@@H](CC(C)C)NC(=O)[C@@H](Cc3ccccc3)NC(=O)c3cnccn3)O4)NC(=O)[C@@H](N)CC3CCC4OB([C@@H](CC(C)C)NC(=O)[C@@H](CC5CCCCC5)NC(=O)C5CNCCN5)OC4C3)C(=O)NCCCC[C@@H]3NC(=O)[C@@H](Cc4ccccc4)NC(=O)[C@H](CC(=O)O)NC(=O)CNC(=O)[C@H](CCCNC(=N)N)NC3=O)cc2O1 (stereo partly specified) ?
active

// param item: Clc1ccc2c(NCCNc3nc(N4CCCCC4)nc4ccccc34)ccnc2c1 ; yields the recorded call
active

----------
- System: SN12C renal
- assay_comment: NCI-60 one-dose screen, 48 h
- condition_details: 10 µM unless noted
Compounds without any hit were thinned out: in the full panel of roughly 83,000, 20% have a hit. Active and inactive are the calls of the source. Rule for the calls: active = growth percent below 10; inactive = the rest.
Hi there, use one of these labels in your reply, thanks! t for active, f for inactive

Use these answered entries as a reference point.
>  <molecule>
Cn1ccnc1C(=O)/C=C/c1ccccc1

>  <class>
f

$$$$
>  <molecule>
CC[C@@H](C(=O)[C@@H](C)[C@@H](O)[C@H](C)[C@@H]1O[C@@H]([C@@H](CC)C(=O)O)CC[C@@H]1C)[C@H]1OC2(C=C[C@@H](O)[C@]3(CC[C@@](C)([C@H]4CC[C@](O)(CC)[C@H](C)O4)O3)O2)[C@H](C)C[C@@H]1C (some centres undefined)

>  <class>
f

$$$$
>  <molecule>
Cc1ccc2c(C(C[N+](=O)[O-])c3ccccc3)c(-c3ccccc3)[nH]c2c1 (centres undefined)

>  <class>
f

$$$$

// next entry
# fetch the recorded call for C=C1C(=O)O[C@H]2[C@H]1CC/C(COC(=O)c1cc3cc(OC)ccc3[nH]1)=C\CC[C@@]1(C)O[C@@H]21 here
t

----------
- System: RPMI-8226 leukemia
- assay_comment: NCI-60 one-dose screen, 48 h
- condition_details: 10 µM unless noted
About 83,000 compounds went through this panel and 20% of them were active in at least one assay; those are over-represented in the sample as a whole. The source made the active and inactive calls. How the source made its calls: active means growth percent below 10; inactive means the rest.
Write down the outcome that applies. Available outcomes: active, inactive

>  <smiles_text>
Cc1ccc(OC(=O)c2ccc(Cl)cc2)cc1

>  <system_tested>
RPMI-8226 leukemia

>  <class>
inactive

$$$$
>  <smiles_text>
Cc1oc(-c2ccc(Cl)cc2Cl)cc1C(=O)Nc1nccs1

>  <system_tested>
RPMI-8226 leukemia

>  <class>
inactive

$$$$
>  <smiles_text>
CN1CCN(CCCOc2cccc3nc(Nc4cc(Cl)cc(Cl)c4)ccc23)CC1

>  <system_tested>
RPMI-8226 leukemia

>  <class>
active

$$$$
>  <smiles_text>
Cc1cc(NS(=O)(=O)c2ccc(-c3cnc(C4CC4)o3)cc2)ccc1Cl

>  <system_tested>
RPMI-8226 leukemia

>  <class>
inactive

$$$$
>  <smiles_text>
CC(=O)O[C@H]1CC[C@]2(C)[C@H]3CC=C4[C@@H]5CC(C)(C)CC[C@]5(C(=O)NCCNCCNCCN)CC[C@@]4(C)[C@]3(C)CC[C@H]2C1(C)C

>  <system_tested>
RPMI-8226 leukemia

>  <class>
active

$$$$
>  <smiles_text>
O=C1NC(=S)NC(=O)C1CC(=O)n1c(-c2ccccc2)nc2ccccc21

>  <system_tested>
RPMI-8226 leukemia

>  <class>
inactive

$$$$
>  <smiles_text>
O=C(CN1C(=O)/C(=C/c2ccc(Cl)cc2)SC1=S)NCCCN1CCOCC1

>  <system_tested>
RPMI-8226 leukemia

>  <class>
inactive

$$$$
>  <smiles_text>
CSc1nc(NCCN2CCOCC2)c(C#N)c(-c2cccc([N+](=O)[O-])c2)n1

>  <system_tested>
RPMI-8226 leukemia

>  <class>
inactive

$$$$

What call does the record list for Cn1cc(C(=O)c2nc(-c3c[nH]c4ccccc34)no2)c2ccccc21 ?
inactive

Short answer needed: outcome of this test for O=c1cc(/C(=C2/C=CC=N2)c2ccc[nH]2)c2cc(Cl)ccc2o1 ?
inactive

----------
- Test system: UACC-257 melanoma
- assay_comment: NCI-60 one-dose screen, 48 h (100 = growth as untreated, 0 = no growth, -100 = all killed)
- condition_details: 10 µM unless noted
About 83,000 compounds went through this panel and 20% of them were active in at least one assay; those are over-represented in the sample as a whole.
observable: growth (%)
Numbers only, in %.

>  <smiles_text>
CC[C@@H]1O[C@H](O[C@@H](c2cnc[nH]2)[C@H](NC(=O)c2nc([C@H](CC(N)=O)NC[C@@H](N)C(N)=O)nc(N)c2C)C(=O)N[C@H](C)[C@H](O)[C@H](C)C(=O)N[C@@H](C(=O)NCCc2nc(-c3nc(C(=O)NCCCCN=C(N)N)cs3)cs2)[C@@H](C)O)[C@H](O[C@@H]2O[C@H](CO)[C@H](O)[C@H](OC(N)=O)[C@@H]2O)[C@H](C)[C@@H]1C

>  <reading>
70.9

$$$$

Record request: growth value, item CN(C)S(=O)(=O)c1ccc(S(=O)(=O)Nc2cccc(Cl)c2N2CCCCC2)cc1
74.1

----------
- Tested on: SK-MEL-2 melanoma
- assay_comment: NCI-60 one-dose screen, 48 h (100 = growth as untreated, 0 = no growth, -100 = all killed)
- condition_details: 10 µM unless noted
- Description: Growth inhibition of the SK-MEL-2 human tumor cell line is measured as a screen for anti-cancer activity. Cells are grown in 96 well plates and exposed to the test compound for 48 hours. Compounds are tested at a single concentration, which is 10^-5 M for most compounds. The reported endpoint is percent growth (GI% or GIPRCNT), where numbers from 0 - 100% represent growth inhibition, and numbers from -100% - 0 represent cell death. For example, a value of 40 represents 60% growth inhibition. […]
Compounds without any hit were thinned out: in the full panel of roughly 83,000, 20% have a hit.
Classify as follows. Reported growth greater than or equal to 40%: 1. Reported growth below: -1.

Solved entries:
>  <molecule>
Cn1ccnc1C(=O)/C=C/c1ccccc1

>  <system_tested>
SK-MEL-2 melanoma

>  <class>
1

$$$$
>  <molecule>
Cn1cc(-c2nonc2-c2cn(C)c3ccc(F)cc23)c2cc(F)ccc21

>  <system_tested>
SK-MEL-2 melanoma

>  <class>
-1

$$$$
>  <molecule>
COc1cc(-c2nc3cc(Cl)c(Cl)cc3[nH]2)ccc1OCC(=O)N=Nc1c(O)[nH]c2ccccc12

>  <system_tested>
SK-MEL-2 melanoma

>  <class>
-1

$$$$
>  <molecule>
CC1=C(O)C(=O)C(C(C#N)(C#N)C(C#N)C#N)C1 (stereo not given)

>  <system_tested>
SK-MEL-2 melanoma

>  <class>
1

$$$$
>  <molecule>
O=C(/C=C/c1ccccc1)c1ccc(O)c(CN2CCN(c3cc4c(cc3F)c(=O)c(C(=O)O)cn4C3CC3)CC2)c1

>  <system_tested>
SK-MEL-2 melanoma

>  <class>
-1

$$$$

hey, is growth for this one >= 40%? CC(C)C[C@@H](NC(=O)[C@@H](Cc1ccccc1)NC(=O)c1cnccn1)B1Oc2ccc(C[C@H](NC(=O)[C@H](Cc3ccc4c(c3)OB([C@@H](CC(C)C)NC(=O)[C@@H](Cc3ccccc3)NC(=O)c3cnccn3)O4)NC(=O)[C@@H](N)CC3CCC4OB([C@@H](CC(C)C)NC(=O)[C@@H](CC5CCCCC5)NC(=O)C5CNCCN5)OC4C3)C(=O)NCCCC[C@@H]3NC(=O)[C@@H](Cc4ccccc4)NC(=O)[C@H](CC(=O)O)NC(=O)CNC(=O)[C@H](CCCNC(=N)N)NC3=O)cc2O1 (stereo not given in full)
-1

Say whether COc1ccc(C2Nc3c(c(C(C)(C)C)nn3-c3ccccc3)C(=O)CS2)cc1 (stereo not given) shows growth of 40% or more.
1

Exam item: decide whether the reported growth for C=CC(=O)Nc1cccc(-c2nc(SC)nc(Nc3ccccc3OC)c2C#N)c1 is at least 40%.
1

Quick check: does Cc1cc2nc3[nH]c4ccccc4c3nc2cc1C have growth greater than or equal to 40%?
1

Determine whether this molecule has growth no lower than 40%: CCOc1ccc(-n2nc(C(=O)Nc3ccccc3)nc2-c2cc(OC)c(OC)c(OC)c2)cc1
-1

Does COc1cc(/C=C/C(=O)c2cccnc2Nc2ccc(F)cc2)cc(OC)c1OC have a reported growth of at least 40%?
-1

Check if growth >= 40% (inclusive). Item: Cc1nc2ccccc2n1C(=O)C[C@@H]1NC(=S)NC1=O
1
